meta.source: patent US9856221B2

Assay: Dissolution test (paddle apparatus, Ph. Eur. 2.9.3), release of active ingredient
Assay type: physicochemical
Details: time 8 hour
Experimental: Dissolution Test Operating Conditions for Dissolution Paddle dissolution apparatus described in the European pharmacopoeia (2.9.3) Dissolution medium: 0.01 N hydrochloric acid (pH˜2.1) degassed Temperature of the medium: 37° C.±0.5° C. […]
Property label: Derivative (of % of active ingredient released over time) (%/min)
Give the value in %/min but do not write %/min after it.

### Prompt Give its Derivative (of % of active ingredient released over time) value. Item: COc1cc2c(cc1OC)CC(=O)N(CCCN(C)C[C@H]1Cc3cc(OC)c(OC)cc31)CC2 [ivabradine hemipamoate]
### Response 0.07
